// data source = patent US12421224B2

# TARGET_OR_SYSTEM: Recombinant full length human OGA enzyme (Homo sapiens)
# Construct: Recombinant full length human OGA enzyme
# Sequence (O60502 whole entry): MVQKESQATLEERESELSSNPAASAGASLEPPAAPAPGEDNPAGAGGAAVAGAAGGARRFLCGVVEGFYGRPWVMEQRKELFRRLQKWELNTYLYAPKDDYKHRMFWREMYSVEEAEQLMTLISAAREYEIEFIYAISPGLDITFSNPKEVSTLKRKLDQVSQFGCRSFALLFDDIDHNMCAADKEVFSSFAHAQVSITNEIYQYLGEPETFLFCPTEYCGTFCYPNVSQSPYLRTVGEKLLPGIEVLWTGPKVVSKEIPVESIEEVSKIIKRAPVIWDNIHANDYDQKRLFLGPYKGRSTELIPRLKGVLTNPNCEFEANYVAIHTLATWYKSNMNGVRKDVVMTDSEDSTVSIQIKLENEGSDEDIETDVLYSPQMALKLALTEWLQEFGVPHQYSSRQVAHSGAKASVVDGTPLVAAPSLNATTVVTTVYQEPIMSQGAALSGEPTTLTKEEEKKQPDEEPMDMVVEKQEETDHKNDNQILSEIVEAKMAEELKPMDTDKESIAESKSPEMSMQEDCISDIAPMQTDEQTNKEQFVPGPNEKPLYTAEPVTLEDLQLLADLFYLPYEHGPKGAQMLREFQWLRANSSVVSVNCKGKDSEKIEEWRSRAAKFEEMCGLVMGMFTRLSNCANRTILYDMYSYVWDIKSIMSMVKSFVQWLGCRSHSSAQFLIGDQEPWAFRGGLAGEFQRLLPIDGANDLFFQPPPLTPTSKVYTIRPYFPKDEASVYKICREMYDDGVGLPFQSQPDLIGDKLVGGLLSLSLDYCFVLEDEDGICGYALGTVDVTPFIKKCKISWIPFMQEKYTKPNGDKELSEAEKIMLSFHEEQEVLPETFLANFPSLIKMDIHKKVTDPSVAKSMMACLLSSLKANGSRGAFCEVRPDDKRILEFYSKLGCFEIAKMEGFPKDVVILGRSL
# EXPERIMENT_NOTES: OGA Enzyme Inhibition Biochemical Assay
# CONDITION_PARAMETERS: 1 nM OGA, 100 μM 4-MUGlcNAc (Km), pH 6.4, 90 minutes at room temperature, 10-point dose-response starting from 20 μM
MEASUREMENT_NAME: IC50 (µM)

The examples below pair each entry with its known result.
COMPOUND: CC(=O)Nc1ncc(CN2C[C@@H](Oc3ccc(F)cn3)[C@H]2C)s1
UNITS_TEXT: µM
IC50: 0.45
//
COMPOUND: CC(=O)Nc1ncc(CN2CC(OCc3cc(C)nc(C)c3)C2)s1
UNITS_TEXT: µM
IC50: 0.48
//
COMPOUND: COc1cc(O[C@@H]2CN(Cc3cnc(NC(C)=O)s3)[C@@H]2C)ncn1 [Example 2-28]
UNITS_TEXT: µM
IC50: 0.11
//
COMPOUND: CC(=O)Nc1ncc(CN2CC(COc3ccc(F)cn3)C2)s1
UNITS_TEXT: µM
IC50: 1.5
//
COMPOUND: CC(=O)Nc1ncc(CN2CC(c3ncnc4sccc34)C2)s1
UNITS_TEXT: µM
IC50: 0.194
//
COMPOUND: CC(=O)Nc1ncc(CN2CC(OCc3noc(C)n3)C2)s1
UNITS_TEXT: µM
IC50: 0.22

A: CC(=O)Nc1ncc(CN2C[C@H](Oc3ncc(F)cn3)[C@H]2C)s1 [Example 2-33]
B: CCOc1cc(CC2CN(Cc3cnc(NC(C)=O)s3)C2)ccn1
Request: Field: lower recorded IC50 (choose A or B ) // caller expects the label of the chosen entry
Response: B

###

# TARGET_OR_SYSTEM: Recombinant full length human OGA enzyme (Homo sapiens)
# Construct: Recombinant full length human OGA enzyme
# EXPERIMENT_NOTES: OGA Enzyme Inhibition Biochemical Assay
# CONDITION_PARAMETERS: 1 nM OGA, 100 μM 4-MUGlcNAc (Km), pH 6.4, 90 minutes at room temperature, 10-point dose-response starting from 20 μM
# Experimental: OGA Enzyme Inhibition Biochemical Assay Recombinant full length human OGA enzyme was purchased from Origene. 4-MUGlCNAc substrate was purchased from Sigma. All other reagents were purchased from Sigma or Fisher. […] Reactions were incubated for 90 minutes at room temperature and quenched with […] of 3M glycine, pH 10 and read on a Perkin Elmer Envision plate reader (Ex: 355 nm/Em: 460 nm). […]
MEASUREMENT_NAME: IC50 (nM)

The examples below pair each entry with its known result.
COMPOUND: CC(=O)Nc1ncc(CN2C[C@H](Oc3ccc(F)cn3)[C@H]2C)s1
MEASUREMENT_NAME: IC50
RESULT: 170
--
COMPOUND: COc1cc(NC2CN(Cc3cnc(NC(C)=O)s3)C2)ncn1
MEASUREMENT_NAME: IC50
RESULT: 407
--
COMPOUND: COc1cc(NC2CN(Cc3cnc(NC(C)=O)s3)C2)ccn1
MEASUREMENT_NAME: IC50
RESULT: 33

I: COc1cc(OC2CN(Cc3cnc(NC(C)=O)s3)C2)ccn1
II: CC(=O)Nc1ncc(CN2CC(c3ncc(F)cn3)C2)s1
Request: Pick the one with the larger IC50: I vs II // caller expects the label of the chosen entry
Response: II
(II: 350 nM, I: 160 nM)
